Assay: Thermodynamic solubility in PBS buffer at 1 mg after 12 hrs by HPLC analysis
Format: physicochemical
Settings: read-out: Therm_solubility
solubility thermodynamic at 12 h values by entry

COc1cc(OC(F)F)c(Cl)c2c1C(=O)[C@@]1(O2)C(OCc2ccccc2)=CC(=O)C[C@H]1C; < 0.3 µg/mL

Qu. Suppose we examine the compound COc1cc(OC(F)F)c2c(c1Cl)O[C@]1(C2=O)C(OCc2ccccc2)=CC(=O)C[C@H]1C ; what solubility thermodynamic at 12 h value has been reported?
Ans. < 0.3 µg/mL

Qu. Further, for COc1cc(OC)c2c(c1Cl)O[C@]1(C2=O)C(OCc2ccccc2)=C/C(=N\OCC(=O)O)C[C@H]1C ?
Ans. > 1000 µg/mL
